The measurements presented in this section are drawn from patent US20220017630A1.

# kon listing for each entry below
targetSystem: T1, cynomolgus TNFR2 (Sino 90102-C08H) (cynomolgus, UniProt A0A2K5VET2 132-366)
T1 construct: also called CynoTNFR2 (His tag)
T1 sequence: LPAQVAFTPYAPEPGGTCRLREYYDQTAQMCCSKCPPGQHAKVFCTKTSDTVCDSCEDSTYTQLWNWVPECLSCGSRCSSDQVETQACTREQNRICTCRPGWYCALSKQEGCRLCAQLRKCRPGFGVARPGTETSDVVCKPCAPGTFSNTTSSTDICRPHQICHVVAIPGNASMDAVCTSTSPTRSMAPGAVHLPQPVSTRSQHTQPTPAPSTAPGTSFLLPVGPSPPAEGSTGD
procedureSummary: SPR Biacore, antibody on Protein A chip, TNFR2 analyte
Reply with just the number (in M⁻¹ s⁻¹).

Example binders with recorded kon:
// query # kon lookup, item TNFR2 antibody #226 (antibody, V domains shown) VH: EVQLQESGAELVRPGASVKLSCKASGYSFTNYWMNWVKQRPGQGLEWIGMIHPSDSETRLNQKFKDKATLTVDKSSSTAYMQLSSPTSEDSAVYYCARGEGLGAARSVSMDYWGQGTTVTVSS VL: DIQMTQSPSSLSASLGDRVTISCRASQDISNYLNWYQQKPDGTVKVLIYYTALLHSGVPSRFSGSGSGTDYSLTISNLEQEDIATYFCQQGNTLPWTFGGGTKLEIK
// result 551000

// query Param item = TNFR2 antibody #395 (antibody, V domains shown) VH: EVQLQESGPVLVQPSQSLSITCTVSGFSLTSYSVHWVRQSPGKGLEWLGVIWSDGGTDYSAAFISRLSISKDNSKSQVFFKMNSLQADDTAIYYCARNDDGGDYAMDYWGQGTTVTVSS VL: EIVLTQSPALMSASPGEKVTMTCSASSSVSYMYWYQQKPRSSPKPWIYLTSNLASGVPARFSGSGSGTSYSLTISSMEAEDAATYYCQQWSSNPLTFGAGTKLEIK ; retrieve measured kon.
// result 2.83e+06

// query Returns the measured kon for the input binder. Input: TNFR2 antibody #224 (antibody, V domains shown) VH: EVQLQESGPEIVKPGASVKLSCTASGFNNKDIYMHWVKQRPEQGLEWIGRIDPATGNTKHDPKFQDKATLSSDTSSNTAYLQFSSLTSEDTAVYYCAHSPYGDFGAMDYWGQGTTVTVSS VL: DIQMTQSPAIMSASLGERVTMTCTASSSVSSNYLHWYQQKPGSSPKLWIYSTSNLPSGVPARFSGSGSGTSYSLTISSMEAEDAATYYCHQYHRSPWTFGGGTKLEIK
// result 425000

More entries:
// query I'd like to know its kon. The binder in question is TNFR2 antibody #133 (antibody, V domains shown) VH: EVQLQESGAELVRSGASVKLSCTASGFNIKDYYIQWVKQRPEQGLEWIGWIDPESGNTKYAPKFQDKATMTADTSSNTAYLQLSGLTSEDSAVYYCNAYYDYDGSMDYWGQGTTVTVSS VL: DIVMTQSPLSLPVSLGDQASISCRSSQSLVHSNGNTYLHWYLQKPGQSPKLLIYKVSNRFSGVPDRFSGSGSGTDFTLKISRVETDDLGVYFCSQSTHVPTWTFGGGTKLEIK
// result 2.82e+06

// query Please look up its kon: TNFR2 antibody #309 (antibody, V domains shown) VH: EVQLQESGAELVKPGASVKLSCKASGYTFTSYWIHWVKLRPGQGFEWIGEINPNNGGTDYNEKFKRKATLTVDKSSSTAYMELSSLTSEDSAIYYCTIDSMITTTWFAYWGQGTTVTVSS VL: EIVMTQSQKLMSTVVGDRVSVTCKASQNVGTNVAWFQQKPGQSPKALINSASYRYSGVPDRFTGSGSGTDFTLTISSVQSEDLAEYFCQQYNSYPFTFGSGTKLEIK
// result 854000

// query Which value of kon has been reported for TNFR2 antibody #365 (antibody, V domains shown) VH: EVQLQESGPGLVQPSQSLSITCTVSGFSLTSYGVHWVRQSPGKGLEWLGLIWSDGSPDYSAAFISRLSINKDNSKSQVFFKMNSLQADDTAIYYCARNDDGGDYVMDYWGQGTTVTVSS VL: EIVLTQSPALMSASPGEKVTMTCSASSSVSYMYWYQQKPRSSPKPWIYLTSNLASGVPARFSGSGSGTSYSLTISSMEAEDAATYYCQQWTSNPLTFGAGTKLEIK in the records?
// result 4.1e+06
